# TARGET OF ASSAY: T1, CEACAM1 antigen (Sino Biological, Inc.) (UniProt P13688 35-428)
# T1 construct: Bought antigen coated on the ELISA plate; construct not described; also called CEACAM1 (CD66a) antigen; CD66a
# T1 sequence (looked up): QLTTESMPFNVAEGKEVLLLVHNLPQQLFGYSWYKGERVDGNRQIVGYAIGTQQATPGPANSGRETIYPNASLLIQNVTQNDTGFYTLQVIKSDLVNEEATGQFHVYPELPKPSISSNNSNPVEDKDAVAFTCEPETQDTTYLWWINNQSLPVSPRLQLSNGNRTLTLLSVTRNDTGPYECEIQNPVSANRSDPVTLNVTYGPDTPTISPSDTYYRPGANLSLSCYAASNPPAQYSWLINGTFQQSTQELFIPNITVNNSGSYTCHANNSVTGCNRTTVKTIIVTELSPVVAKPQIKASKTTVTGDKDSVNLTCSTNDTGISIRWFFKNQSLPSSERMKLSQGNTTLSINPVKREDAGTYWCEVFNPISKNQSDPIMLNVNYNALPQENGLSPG
# PROTOCOL TEXT: ELISA, coated CEACAM1 100 ng/well, antibody 0.17 ng/ml
MEASUREMENT NAME: OD 450 nm
Hey, just the number and the unit after it is fine.

# input Recorded OD 450 nm of recombinant humanized anti-CD66c antibody Protein ID 3007 (Vk7 + VH6) (antibody, human IgG1, V domains shown, also called hu 3007; #43) VH: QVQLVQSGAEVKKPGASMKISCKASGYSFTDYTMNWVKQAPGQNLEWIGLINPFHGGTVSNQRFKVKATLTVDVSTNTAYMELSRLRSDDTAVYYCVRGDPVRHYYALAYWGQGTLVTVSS VL: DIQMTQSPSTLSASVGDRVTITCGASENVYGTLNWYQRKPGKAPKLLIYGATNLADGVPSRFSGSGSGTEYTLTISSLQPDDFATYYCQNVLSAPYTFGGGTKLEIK , please.
# output 0.09 OD
